assay: Clinical study #1: PK of edaravone oral formulation (formula #1), fasted vs 30 min after high-fat meal; format: in vivo; settings: male, human, plasma, 200 mg, 200 mg oral, formula #1, fasted, mean (n = 6)
value_kind: Tmax (min)
// return numeric value only (unit: min, not printed)

Ask: Would you kindly share the measured Tmax for CC1=NN(c2ccccc2)C(=O)C1 [Edaravone, 3-methyl-1-phenyl-2-pyrazolin-5-one] ?
Result: 25.2

====

test: Clinical study #3: PK of edaravone oral formulation (formula #3), fasted vs after high-fat, standard or light meal; analysis of variance; format: in vivo, human; conditions: 105 mg oral, 4 hours after standard meal
value_kind: Cmax Min (ng/mL)
# unit: ng/mL | format: bare number

Ask: Need Cmax Min of CC1=NN(c2ccccc2)C(=O)C1 [Edaravone, 3-methyl-1-phenyl-2-pyrazolin-5-one] , thanks.
Result: 642

====

assay: Clinical study #1: PK of edaravone oral formulation (formula #1), fasted vs 30 min after high-fat meal; type: in vivo; conditions: male, human, plasma, 200 mg, 200 mg oral, formula #1, 30 min after high-fat meal, mean (n = 5)
value_kind: half-life (h)
Numeric answer only, unit h assumed.

Ask: Quick check: half-life of CC1=NN(c2ccccc2)C(=O)C1 [Edaravone, 3-methyl-1-phenyl-2-pyrazolin-5-one] ?
Result: 5.23

====

assay: Clinical study #2: PK of edaravone oral formulation (formula #2), fasted vs 4 h after high-fat meal; format: in vivo; conditions: male, human, plasma, 100 mg, 100 mg oral, formula #2, fasted, mean (n = 9)
value_kind: Tmax (min)
Response body: numeric value in min, unit text excluded.

Ask: May I ask what Tmax has been recorded for CC1=NN(c2ccccc2)C(=O)C1 [Edaravone, 3-methyl-1-phenyl-2-pyrazolin-5-one] ?
Result: 21.6

====

assay: Clinical study #5: PK of edaravone oral formulation (formula #3) in ALS patients, oral, fasted; format: in vivo, human; conditions: human, plasma; 105 mg oral, fasted, ALS patients (n = 9), mean, before weight correction
value_kind: AUC(0-inf)
Remember to put the unit after the number in your answer.

Ask: Could you share which AUC(0-inf) value was measured for CC1=NN(c2ccccc2)C(=O)C1 ?
Result: 1740 ng·h/mL

====

experiment: Caco-2 cell monolayer membrane permeability test; conditions: human, Caco-2, pH 7.4
value_kind: Papp A→B at 2 h, 100 μmol/L (×10⁻⁶ cm/s)
Kindly provide the numeric value in ×10⁻⁶ cm/s only, without the unit symbol.

Ask: Fill blank: measured Papp A→B at 2 h, 100 μmol/L of the compound CC1=NN(c2ccccc2)C(=O)C1 [Edaravone, 3-methyl-1-phenyl-2-pyrazolin-5-one] is ____.
Result: 32

====

Test: Clinical study #1: PK of edaravone oral formulation (formula #1), fasted vs 30 min after high-fat meal
Type: in vivo
Conditions: male, human, plasma, 200 mg, 200 mg oral, formula #1, fasted, mean (n = 6)
Description: Effects of meal consumption before administration of the edaravone oral formulation on the pharmacokinetics of edaravone were evaluated. Specifically, clinical studies #1, #2, and #3 described below were conducted on separate days in Japanese healthy adult male subjects. […]
value_kind: half-life

Ask: For CC1=NN(c2ccccc2)C(=O)C1 , what is its reported half-life?
Result: 9.05 h

====

assay: Clinical study #11: PK of edaravone oral formulation (formula #3) via nasopharyngeal gastric tube vs oral in healthy adults; assay type: in vivo, human; conditions: human, plasma, other: nasopharyngeal gastric tube (NG tube); formula #3 (105 mg), Nasopharyngeal gastric tube, fasted (N = 36), mean
value_kind: AUC
Reply with a number, then the unit it belongs to.

Ask: State the recorded AUC for this entry: CC1=NN(c2ccccc2)C(=O)C1
Result: 2590 ng·h/mL
